Listed molecules paired with reported pEC50
- testSystem: human RXFP1 (Homo sapiens)
- Sequence (Q9HBX9 1-757): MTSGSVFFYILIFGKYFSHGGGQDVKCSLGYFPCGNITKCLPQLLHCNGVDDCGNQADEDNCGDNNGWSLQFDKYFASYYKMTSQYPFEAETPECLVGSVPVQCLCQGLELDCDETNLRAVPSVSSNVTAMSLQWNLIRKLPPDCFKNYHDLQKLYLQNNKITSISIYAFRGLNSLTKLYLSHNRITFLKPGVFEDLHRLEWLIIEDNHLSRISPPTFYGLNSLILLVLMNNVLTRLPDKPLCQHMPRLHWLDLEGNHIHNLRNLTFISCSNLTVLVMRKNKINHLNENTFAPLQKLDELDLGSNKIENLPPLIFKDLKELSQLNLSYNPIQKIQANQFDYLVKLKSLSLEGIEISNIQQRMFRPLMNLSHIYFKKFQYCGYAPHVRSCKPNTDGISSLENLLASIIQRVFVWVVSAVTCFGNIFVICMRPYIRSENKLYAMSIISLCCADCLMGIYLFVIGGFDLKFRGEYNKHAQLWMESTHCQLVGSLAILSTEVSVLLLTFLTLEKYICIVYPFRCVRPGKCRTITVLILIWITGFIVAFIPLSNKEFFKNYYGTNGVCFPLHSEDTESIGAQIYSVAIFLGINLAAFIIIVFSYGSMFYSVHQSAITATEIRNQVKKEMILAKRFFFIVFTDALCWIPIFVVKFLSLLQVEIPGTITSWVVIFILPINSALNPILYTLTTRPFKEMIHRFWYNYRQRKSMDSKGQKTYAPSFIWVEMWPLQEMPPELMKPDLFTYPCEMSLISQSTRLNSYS
- test: hRXFP1 HEK293 cAMP assay (HTRF)
- particulars: HEK293 cells stably expressing human RXFP1, 30 min at room temperature
By convention, pEC50 is the negative base-10 log of a molar concentration.

Example molecules with recorded pEC50:
COc1ccc(CCCO)cc1C(=O)N[C@H]1[C@@H](C(=O)Nc2ccc(F)c(C(F)(F)F)c2)[C@H]2CC[C@@H]1/C2=C\C(C)C: 7.27
COc1ccc(C23CCC(C(C)(C)O)(CC2)CC3)cc1C(=O)N[C@H]1[C@@H](C(=O)Nc2ccc(F)c(C(F)(F)F)c2)[C@H]2CC[C@@H]1/C2=C\C1CC1 (single isomer, unassigned) [Example 274]: 7.00

Form: item `COc1ccc(S(=O)(=O)N2CCN(C(=O)OC(C)(C)C)[C@@H](CO)C2)cc1C(=O)N[C@H]1[C@@H](C(=O)Nc2ccc(F)c(C(F)(F)F)c2)[C@H]2CC[C@@H]1/C2=C\C(F)(F)F` ; test system human RXFP1 (Homo sapiens); pEC50: 5.76

====

- testSystem: human RXFP1 (Homo sapiens, UniProt Q9HBX9)
- Sequence (Q9HBX9 1-757): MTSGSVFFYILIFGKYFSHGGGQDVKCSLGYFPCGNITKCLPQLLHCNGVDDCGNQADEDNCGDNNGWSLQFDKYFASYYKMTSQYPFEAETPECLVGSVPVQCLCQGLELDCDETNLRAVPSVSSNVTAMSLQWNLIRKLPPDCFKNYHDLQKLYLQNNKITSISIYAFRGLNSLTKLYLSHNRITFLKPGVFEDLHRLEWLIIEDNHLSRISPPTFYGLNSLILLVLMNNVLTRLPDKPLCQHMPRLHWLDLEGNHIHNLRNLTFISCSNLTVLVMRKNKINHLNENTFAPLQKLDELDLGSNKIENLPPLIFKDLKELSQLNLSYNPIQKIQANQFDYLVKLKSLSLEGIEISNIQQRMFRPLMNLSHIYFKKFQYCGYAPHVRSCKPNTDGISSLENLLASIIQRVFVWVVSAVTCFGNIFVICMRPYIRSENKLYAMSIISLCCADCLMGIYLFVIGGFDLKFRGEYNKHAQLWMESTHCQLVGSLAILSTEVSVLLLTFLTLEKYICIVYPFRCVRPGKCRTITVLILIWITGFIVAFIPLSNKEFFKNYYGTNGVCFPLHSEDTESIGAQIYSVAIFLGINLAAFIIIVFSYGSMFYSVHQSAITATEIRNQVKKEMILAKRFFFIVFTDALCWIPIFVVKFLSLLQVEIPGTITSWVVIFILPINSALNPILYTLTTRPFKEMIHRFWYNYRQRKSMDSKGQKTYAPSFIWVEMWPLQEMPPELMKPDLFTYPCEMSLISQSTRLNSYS
- test: hRXFP1 HEK293 cAMP assay (HTRF)
- particulars: HEK293 cells stably expressing human RXFP1, 30 min at room temperature
readout: EC50

Example compounds with recorded EC50:
COc1ccc(CCCN)cc1C(=O)N[C@H]1[C@@H](C(=O)Nc2ccc(F)c(C(F)(F)F)c2)[C@H]2CC[C@@H]1/C2=C\C(F)(F)F: 2520 nM
COc1ccc(/C=C/C(=O)NC2CCC2)cc1C(=O)NC1C2CCC(/C2=C/C(F)(F)F)[C@@H]1C(=O)Nc1ccc(F)c(C(F)(F)F)c1 (stereo partly drawn): 644 nM
COc1ccc(CN2C(=O)NC3(CCOC3)C2=O)cc1C(=O)N[C@H]1[C@@H](C(=O)Nc2ccc(F)c(C(F)(F)F)c2)[C@H]2CC[C@@H]1/C2=C\C1CC1 (stereo partly drawn): 70.4 nM
COc1ccc(C#C[C@@H](C)O)cc1C(=O)N[C@@H]1C2CCC(/C2=C/C2CC2)[C@@H]1C(=O)Nc1ccc(F)c(C(F)(F)F)c1 (stereo partly drawn): 88 nM
COc1ccc(/C=C/C(=O)N2CCC(C#N)CC2)cc1C(=O)N[C@H]1[C@@H](C(=O)Nc2ccc(F)c(C(F)(F)F)c2)[C@H]2CC[C@@H]1/C2=C\C1CC1: 96.7 nM
CNc1ccc(CCCO)cc1C(=O)N[C@H]1[C@@H](C(=O)Nc2ccc(F)c(C(F)(F)F)c2)[C@H]2CC[C@@H]1/C2=C\C(F)(F)F: 4710 nM
COc1ccc([C@H]2C[C@H](O)C2)cc1C(=O)NC1C2CCC(/C2=C/C2CC2)[C@@H]1C(=O)Nc1ccc(F)c(C(F)(F)F)c1 (stereo partly drawn): 6 nM
COc1ccc([C@@H]2CCC(CC(C)(C)O)C2)cc1C(=O)N[C@H]1[C@@H](C(=O)Nc2ccc(F)c(C(F)(F)F)c2)[C@H]2CC[C@@H]1/C2=C\C1CCCC1 (stereo partly drawn): 3 nM
COc1ccc(C(=O)N2CC(C)(C)C2)cc1C(=O)N[C@H]1[C@@H](C(=O)Nc2ccc(F)c(C(F)(F)F)c2)[C@H]2CC[C@@H]1/C2=C\C1CC1: 41.3 nM
COc1ccc(S(=O)(=O)N2CCN[C@H](CO)C2)cc1C(=O)N[C@H]1[C@@H](C(=O)Nc2ccc(F)c(C(F)(F)F)c2)[C@H]2CC[C@@H]1/C2=C\C(F)(F)F: 589 nM

EC50 reading for COc1ccc(C2CC3CC(CO)CC32)cc1C(=O)N[C@H]1[C@@H](C(=O)Nc2ccc(F)c(C(F)(F)F)c2)[C@H]2CC[C@@H]1/C2=C\C1CC1 (single isomer, unassigned) [Example 352] : 49.9 nM

EC50 reading for `COc1ccc(C(=O)N2C3CCC2COC3)cc1C(=O)N[C@H]1[C@@H](C(=O)Nc2ccc(F)c(C(F)(F)F)c2)[C@H]2CC[C@@H]1/C2=C\C1CC1` : 32.9 nM

EC50 reading for COc1cc(CN2C(=O)CNC2=O)ccc1C(=O)N[C@@H]1C2CCC(/C2=C/C2CC2)[C@@H]1C(=O)Nc1ccc(F)c(C(F)(F)F)c1 (stereo partly drawn) : 2040 nM

EC50 reading for COc1ccc(C2CC2C(=O)N2CCC(O)CC2)cc1C(=O)N[C@H]1[C@@H](C(=O)Nc2ccc(F)c(C(F)(F)F)c2)[C@H]2CC[C@@H]1/C2=C\C(F)(F)F (single isomer, unassigned) [Example 323] : 21.5 nM

EC50 reading for COc1ccc(C2CCCCC2)cc1C(=O)N[C@@H]1C2CCC(/C2=C/C(F)(F)F)[C@@H]1C(=O)Nc1ccc(F)c(C(F)(F)F)c1 (stereo partly drawn) : 611 nM

EC50 reading for COc1ccc(COCC(=O)O)cc1C(=O)N[C@@H]1C2CCC(/C2=C/c2ccccc2)[C@@H]1C(=O)Nc1ccc(F)c(C(F)(F)F)c1 (stereo partly drawn) : 400 nM
